target: full length N-terminally FLAG-tagged PARP1 (Homo sapiens, UniProt P09874); test: PARP1 biochemical DELFIA assay (auto-PARylation); parameters: recombinant full length human N-terminally FLAG-tagged PARP1; details: binned IC50, PARP1 biochemical DELFIA assay
Sequence (P09874 whole entry): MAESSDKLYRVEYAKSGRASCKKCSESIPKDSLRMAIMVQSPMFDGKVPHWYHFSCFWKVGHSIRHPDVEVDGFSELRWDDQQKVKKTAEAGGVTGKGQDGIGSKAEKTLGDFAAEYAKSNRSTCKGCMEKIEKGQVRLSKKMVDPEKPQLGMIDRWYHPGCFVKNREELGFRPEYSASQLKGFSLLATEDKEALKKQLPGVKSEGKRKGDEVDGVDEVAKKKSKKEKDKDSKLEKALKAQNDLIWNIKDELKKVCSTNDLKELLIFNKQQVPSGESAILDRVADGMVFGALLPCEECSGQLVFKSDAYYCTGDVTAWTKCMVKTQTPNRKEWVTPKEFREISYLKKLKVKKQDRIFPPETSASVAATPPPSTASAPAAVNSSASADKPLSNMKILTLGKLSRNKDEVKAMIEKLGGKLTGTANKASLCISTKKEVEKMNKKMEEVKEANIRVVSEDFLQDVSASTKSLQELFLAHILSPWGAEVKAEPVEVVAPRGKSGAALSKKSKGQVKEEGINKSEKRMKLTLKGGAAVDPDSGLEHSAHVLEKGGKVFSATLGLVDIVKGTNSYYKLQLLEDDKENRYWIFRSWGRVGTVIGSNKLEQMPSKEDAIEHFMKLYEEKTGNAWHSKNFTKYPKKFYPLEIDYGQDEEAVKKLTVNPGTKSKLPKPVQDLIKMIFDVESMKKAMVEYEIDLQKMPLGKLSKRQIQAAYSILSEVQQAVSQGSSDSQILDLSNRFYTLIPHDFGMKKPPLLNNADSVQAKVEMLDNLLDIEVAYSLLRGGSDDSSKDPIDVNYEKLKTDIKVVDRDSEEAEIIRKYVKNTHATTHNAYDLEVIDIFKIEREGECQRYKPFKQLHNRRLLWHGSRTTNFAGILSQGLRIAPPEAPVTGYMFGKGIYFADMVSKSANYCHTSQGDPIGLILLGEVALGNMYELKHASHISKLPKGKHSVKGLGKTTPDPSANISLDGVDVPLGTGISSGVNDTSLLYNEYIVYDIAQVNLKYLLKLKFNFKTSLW
ASSAY METRIC: IC50

Please review the entries below; each comes with its answer.
INSERT INTO assay_data (molecule, result) VALUES
  ('CNC(=O)c1ccc(N2CCC(N3CC(c4nc5ccccc5c(=O)[nH]4)C3)CC2)cn1 [Compound 27]', '10 to 100 nM'),
  ('CNC(=O)c1ccc(N2CCC(N3CCCC(c4nc5ccccc5c(=O)[nH]4)C3)CC2)c(Cl)n1 (single isomer, unassigned) [Compound 94b]', '< 10 nM'),
  ('CNC(=O)c1ccc(N(C)CCN2CCCC(Cc3nc4ccccc4c(=O)[nH]3)C2)cn1 (single isomer, unassigned) [Compound 13a]', '1000 to 10000 nM');

Req: Query: IC50; subject: CNC(=O)c1ccc(N2CCC(N3CCC(c4nc5c(F)ccc(F)c5c(=O)[nH]4)C3)CC2)cn1 (single isomer, unassigned) [Compound 182b]
Resp: < 10 nM
